Target: T1, human GIP receptor (human) (UniProt P48546)
T1 sequence (looked up): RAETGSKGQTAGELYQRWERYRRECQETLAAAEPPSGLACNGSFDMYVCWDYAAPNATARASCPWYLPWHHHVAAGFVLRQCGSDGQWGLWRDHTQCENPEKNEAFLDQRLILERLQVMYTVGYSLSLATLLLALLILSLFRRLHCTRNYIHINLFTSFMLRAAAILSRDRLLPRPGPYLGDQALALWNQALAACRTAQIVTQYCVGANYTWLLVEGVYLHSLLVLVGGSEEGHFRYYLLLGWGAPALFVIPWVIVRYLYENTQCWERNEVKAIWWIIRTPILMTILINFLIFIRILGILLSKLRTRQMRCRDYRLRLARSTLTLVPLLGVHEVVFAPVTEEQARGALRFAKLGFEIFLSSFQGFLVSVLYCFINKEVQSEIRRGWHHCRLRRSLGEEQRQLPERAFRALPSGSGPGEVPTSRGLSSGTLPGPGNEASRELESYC
Assay: cell-based or functional assay
Starred links: 1 amine or outer side, 2 acyl side, 3 side chain; linkers in the order of their positions; H or OH if unused. Non-standard residues stand in square brackets, D forms with d. Groups on a side chain read outwards from the residue. No end group written: not given here. *: point of attachment. C18 diacid = O=C(O)CCCCCCCCCCCCCCCCC(=O)*; αMePhe(2-F) = C[C@](N)(Cc1ccccc1F)C(=O)O; γGlu = O=C(O)[C@H](CCC(=O)[*:2])N[*:1]; αMe4Pal = C[C@](N)(Cc1ccncc1)C(=O)O; 4Pal = N[C@@H](Cc1ccncc1)C(=O)O; αMeL = CC(C)C[C@](C)(N)C(=O)O; Orn = NCCC[C@H](N)C(=O)O; Dab = NCC[C@H](N)C(=O)O; Aib = CC(C)(N)C(=O)O
// returns Criterion not met unless Relative cAMP EC50 is strictly below 40 pM, in which case Criterion met

See these solved cases before continuing.
YXQGTXTSDYSILLDKKAQXAFIEYLEEGGPSSGAPPPSEG (not fully specified; synthetic construct; SITE 2: note = 2-Aminoisobutyric Acid; SITE 6: note = alpha-methyl-2-fluoro-L-phenylalanine; SITE 17: note = Lysine is chemically modified through conjugation of the epsilon-amino group of the Lysine side chain with (2-[2-(2-Amino-ethoxy)-ethoxy]-acetyl)-(gamma-Glu)-CO-(CH2) 16-) [Example 398] :: Criterion met
YXQGTFTSDXSXXLDKKAQXAFIEYLIAGGPSSGAPPPSESE (not fully specified; synthetic construct; SITE 2: note = 2-Aminoisobutyric Acid; SITE 10: note = 3-(4-Pyridyl)-L-alanine; SITE 12: note = L-ornithine; SITE 13: note = alpha-methyl-leucine; SITE 17: note = Lysine is chemically modified through conjugation of the epsilon-amino group of the Lysine side chain with (gamma-Gl)) [Example 1010] :: Criterion not met
YXQGTFTSDXSXXLDKKAQXAFIEYLIAGGPSSGEPPPSGE (synthetic construct; SITE 2: note = 2-Aminoisobutyric Acid; SITE 10: note = 3-(4-Pyridyl)-L-alanine; SITE 12: note = L-ornithine; SITE 13: note = alpha-methyl-leucine; SITE 17: note = Lysine is chemically modified through conjugation of the epsilon-amino group of the Lysine side chain with (gamma-Gl)) [Example 979] :: Criterion not met
YXQGTFTSDFSKXLDKKAQXAFIEYLLAGGPSSGEPPPSEGX (Aib, αMeL, acylated K, C-terminal AEEA amide; synthetic construct; SITE 2: note = 2-Aminoisobutyric Acid; SITE 13: note = alpha-methyl-leucine; SITE 17: note = Lysine is chemically modified through conjugation of the epsilon-amino group of the Lysine side chain with (2-[2-(2-Amino-ethoxy)-ethoxy]-acetyl)-(gamma-Glu)-CO-(CH2) 18-CO2H; SITE 20: n) [Example 32] :: Criterion not met
YXQGTXTSDXXIXLDXKAQXEFIEXLIEGGPSSGEPPPEGE (non-natural residues; AEEA-γGlu-C18 diacid on Lys; C-terminal amide; synthetic construct; SITE 2: note = 2-Aminoisobutyric Acid; SITE 6: note = alpha-methyl-2-fluoro-L-phenylalanine; SITE 10: note = 3-(4-Pyridyl)-L-alanine; SITE 11: note = alpha-methyl-L-serine; SITE 13: note = alpha-methyl-leucine; SITE 16: note = L-ornithine; SITE 17: note = Lysine is chemically mo) [Example 1149] :: Criterion met
YXQGTFTSDFSKXLDKKAQXAFIEYLLAGGPSSGEPPPSGEX (not fully specified; Aib, αMeL; acylated Lys; C-terminal AEEA amide; synthetic construct; SITE 2: note = 2-Aminoisobutyric Acid; SITE 13: note = alpha-methyl-leucine; SITE 17: note = Lysine is chemically modified through conjugation of the epsilon-amino group of the Lysine side chain with (2-[2-(2-Amino-ethoxy)-ethoxy]-acetyl)-(gamma-Glu)-CO-(CH2) 18-CO2H; SITE 20: n) [Example 33] :: Criterion not met
YXQGTFTSDFSKXLDKKAQXAFIEYLLAGGPSSGEPPPGEG (Lys acylated; non-natural residues; C-amide; synthetic construct; SITE 2: note = 2-Aminoisobutyric Acid; SITE 13: note = alpha-methyl-leucine; SITE 17: note = Lysine is chemically modified through conjugation of the epsilon-amino group of the Lysine side chain with (2-[2-(2-Amino-ethoxy)-ethoxy]-acetyl)-(gamma-Glu)-CO-(CH2) 18-CO2H; SITE 20: n) [Example 31] :: Criterion not met
YXQGTXTSDXXIXLDXKAQXEFIEXLVEGGPSSGAPPPGGE (not fully specified; non-natural residues; AEEA-γGlu-C18 diacid acyl; C-terminal amide; synthetic construct; SITE 2: note = 2-Aminoisobutyric Acid; SITE 6: note = alpha-methyl-2-fluoro-L-phenylalanine …; SITE 10: note = 3-(4-Pyridyl)-L-alanine; SITE 11: note = alpha-methyl-L-serine; SITE 13: note = alpha-methyl-leucine; SITE 16: note = L-ornithine; SITE 17: note = Lysine is chemically mo) [Example 1154] :: Criterion met

Record YXQGTFTSDXSKXLDKKAQXAFIEYLIEXGPSSGAPPPSGSEEE (synthetic construct; SITE 2: note = 2-Aminoisobutyric Acid; SITE 10: note = 3-(4-Pyridyl)-L-alanine; SITE 13: note = alpha-methyl-leucine; SITE 17: note = Lysine is chemically modified through conjugation of the epsilon-amino group of the Lysine side chain with (gamma-Glu)2-CO-(CH2)16-CO2H; SITE 20:) [Example 906] : is its Relative cAMP EC50 strictly below 40 pM?
Criterion not met

Record YXQGTXTSDXXIXLDXKAAXEFIEXLIEGGPSSGAPPPSGGGE (synthetic construct; SITE 2: note = 2-Aminoisobutyric Acid; SITE 6: note = alpha-methyl-2-fluoro-L-phenylalanine; SITE 10: note = 3-(4-Pyridyl)-L-alanine; SITE 11: note = alpha-methyl-L-serine; SITE 13: note = alpha-methyl-leucine; SITE 16: note = L-ornithine; SITE 17: note = Lysine is chemically mo) [Example 745] : is its Relative cAMP EC50 strictly below 40 pM?
Criterion met

Record YXQGTXTSDXXIXLDXKAQXXFIEXLIEGGPSSGEPPPE (synthetic construct; SITE 2: note = 2-Aminoisobutyric Acid; SITE 6: note = alpha-methyl-2-fluoro-L-phenylalanine; SITE 10: note = 3-(4-Pyridyl)-L-alanine; SITE 11: note = alpha-methyl-L-serine; SITE 13: note = alpha-methyl-leucine; SITE 16: note = L-ornithine; SITE 17: note = Lysine is chemically mo) [Example 378] : is its Relative cAMP EC50 strictly below 40 pM?
Criterion met

Record Y[Aib]QGT[αMePhe(2-F)]TSDYSKLLDKIAQKAFIEYLIEGGPSSGAPPPEGE-NH2 (not fully specified (residue 20)) [Example 357] : is its Relative cAMP EC50 strictly below 40 pM?
Criterion not met

Record YXQGTFTSDFSIXLDKKAQXAFIEYLLEGGPSSGEPPPSEG (synthetic construct; SITE 2: note = 2-Aminoisobutyric Acid; SITE 13: note = alpha-methyl-leucine; SITE 17: note = Lysine is chemically modified through conjugation of the epsilon-amino group of the Lysine side chain with (2-[2-(2-Amino-ethoxy)-ethoxy]-acetyl)-(gamma-Glu)-CO-(CH2) 18-CO2H; SITE 20: n) [Example 288] : is its Relative cAMP EC50 strictly below 40 pM?
Criterion not met

Record YXQGTFTSDFSXXLDKKAQXAFIEYLIEXGESSGAPPPSGE (non-natural residues; lipidated Lys; C-terminal amide; synthetic construct; SITE 2: note = 2-Aminoisobutyric Acid; SITE 12: note = L-ornithine; SITE 13: note = alpha-methyl-leucine; SITE 17: note = Lysine is chemically modified through conjugation of the epsilon-amino group of the Lysine side chain with (2-[2-(2-Amino-ethoxy)-ethoxy]-acetyl)-(gamma-Glu)) [Example 219] : is its Relative cAMP EC50 strictly below 40 pM?
Criterion not met

Record YXQGTFTSDXXQXLDXKAQXQFIQXLIEXGPSSGEPPPSGGGE (non-natural residues; lipidated Lys; C-terminal amide; synthetic construct; SITE 2: note = 2-Aminoisobutyric Acid; SITE 10: note = 3-(4-Pyridyl)-L-alanine; SITE 11: note = alpha-methyl-L-serine; SITE 13: note = alpha-methyl-leucine; SITE 16: note = L-ornithine; SITE 17: note = Lysine is chemically modified through conjugation of the epsilon-amino group) [Example 1183] : is its Relative cAMP EC50 strictly below 40 pM?
Criterion not met

Record YXQGTFTSDXSQXLDXKAQXQFIQXLIEXGPSSGEPPPSGGGE (non-natural residues; lysine acylated with C18 diacid; C-terminal amide; synthetic construct; SITE 2: note = 2-Aminoisobutyric Acid; SITE 10: note = 3-(4-Pyridyl)-L-alanine; SITE 13: note = alpha-methyl-leucine; SITE 16: note = L-ornithine; SITE 17: note = Lysine is chemically modified through conjugation of the epsilon-amino group of the Lysine side chain with D-Glutami) [Example 1129] : is its Relative cAMP EC50 strictly below 40 pM?
Criterion not met

Record YXQGTXTSDXXIXLDXKAQXEFIEXLIEGGPSSGAPPPESE (non-natural residues, acylated Lys, C-terminal amide; synthetic construct; SITE 2: note = 2-Aminoisobutyric Acid; SITE 6: note = alpha-methyl-2-fluoro-L-phenylalanine; SITE 10: note = 3-(4-Pyridyl)-L-alanine; SITE 11: note = alpha-methyl-L-serine; SITE 13: note = alpha-methyl-leucine; SITE 16: note = L-ornithine; SITE 17: note = Lysine is chemically mo) [Example 1146] : is its Relative cAMP EC50 strictly below 40 pM?
Criterion met

Record YXQGTFTSDXSQXLDXKAQXAFIEYLIAXGPSSGEPPPSGSEE (non-natural residues, γGlu-C18 diacid lysine acylation, C-terminal amide; synthetic construct; SITE 2: note = 2-Aminoisobutyric Acid; SITE 10: note = 3-(4-Pyridyl)-L-alanine; SITE 13: note = alpha-methyl-leucine; SITE 16: note = L-ornithine; SITE 17: note = Lysine is chemically modified through conjugation of the epsilon-amino group of the Lysine side chain with D-Glutami) [Example 1101] : is its Relative cAMP EC50 strictly below 40 pM?
Criterion not met

Record Y[Aib]QGTFTSD[4Pal]S[Dab][αMeL]LD[Orn]K([γGlu-γGlu-C18 diacid])AQ[αMe4Pal]AFIE[αMe4Pal]LLAGGPSSGAPPPEGSEE-NH2 [Example 1055] : is its Relative cAMP EC50 strictly below 40 pM?
Criterion not met

Record YXQGTXTSDYXSXLDXKAQXXFIEXLLEGGPSSGEPPPE (synthetic construct; SITE 2: note = 2-Aminoisobutyric Acid; SITE 6: note = alpha-methyl-L-phenylalanine; SITE 11: note = alpha-methyl-L-serine; SITE 13: note = alpha-methyl-leucine; SITE 16: note = L-ornithine; SITE 17: note = Lysine is chemically modified through conjugation of the epsilon-amino gr) [Example 389] : is its Relative cAMP EC50 strictly below 40 pM?
Criterion met

The values you see were collected from patent US20240270821A1.
